TARGET DESC: Cav1.3 L-type Ca channels (Rattus norvegicus, UniProt P27732)
Construct: expressed in transfected cells; host or cells: HEK293
Sequence (P27732 whole entry): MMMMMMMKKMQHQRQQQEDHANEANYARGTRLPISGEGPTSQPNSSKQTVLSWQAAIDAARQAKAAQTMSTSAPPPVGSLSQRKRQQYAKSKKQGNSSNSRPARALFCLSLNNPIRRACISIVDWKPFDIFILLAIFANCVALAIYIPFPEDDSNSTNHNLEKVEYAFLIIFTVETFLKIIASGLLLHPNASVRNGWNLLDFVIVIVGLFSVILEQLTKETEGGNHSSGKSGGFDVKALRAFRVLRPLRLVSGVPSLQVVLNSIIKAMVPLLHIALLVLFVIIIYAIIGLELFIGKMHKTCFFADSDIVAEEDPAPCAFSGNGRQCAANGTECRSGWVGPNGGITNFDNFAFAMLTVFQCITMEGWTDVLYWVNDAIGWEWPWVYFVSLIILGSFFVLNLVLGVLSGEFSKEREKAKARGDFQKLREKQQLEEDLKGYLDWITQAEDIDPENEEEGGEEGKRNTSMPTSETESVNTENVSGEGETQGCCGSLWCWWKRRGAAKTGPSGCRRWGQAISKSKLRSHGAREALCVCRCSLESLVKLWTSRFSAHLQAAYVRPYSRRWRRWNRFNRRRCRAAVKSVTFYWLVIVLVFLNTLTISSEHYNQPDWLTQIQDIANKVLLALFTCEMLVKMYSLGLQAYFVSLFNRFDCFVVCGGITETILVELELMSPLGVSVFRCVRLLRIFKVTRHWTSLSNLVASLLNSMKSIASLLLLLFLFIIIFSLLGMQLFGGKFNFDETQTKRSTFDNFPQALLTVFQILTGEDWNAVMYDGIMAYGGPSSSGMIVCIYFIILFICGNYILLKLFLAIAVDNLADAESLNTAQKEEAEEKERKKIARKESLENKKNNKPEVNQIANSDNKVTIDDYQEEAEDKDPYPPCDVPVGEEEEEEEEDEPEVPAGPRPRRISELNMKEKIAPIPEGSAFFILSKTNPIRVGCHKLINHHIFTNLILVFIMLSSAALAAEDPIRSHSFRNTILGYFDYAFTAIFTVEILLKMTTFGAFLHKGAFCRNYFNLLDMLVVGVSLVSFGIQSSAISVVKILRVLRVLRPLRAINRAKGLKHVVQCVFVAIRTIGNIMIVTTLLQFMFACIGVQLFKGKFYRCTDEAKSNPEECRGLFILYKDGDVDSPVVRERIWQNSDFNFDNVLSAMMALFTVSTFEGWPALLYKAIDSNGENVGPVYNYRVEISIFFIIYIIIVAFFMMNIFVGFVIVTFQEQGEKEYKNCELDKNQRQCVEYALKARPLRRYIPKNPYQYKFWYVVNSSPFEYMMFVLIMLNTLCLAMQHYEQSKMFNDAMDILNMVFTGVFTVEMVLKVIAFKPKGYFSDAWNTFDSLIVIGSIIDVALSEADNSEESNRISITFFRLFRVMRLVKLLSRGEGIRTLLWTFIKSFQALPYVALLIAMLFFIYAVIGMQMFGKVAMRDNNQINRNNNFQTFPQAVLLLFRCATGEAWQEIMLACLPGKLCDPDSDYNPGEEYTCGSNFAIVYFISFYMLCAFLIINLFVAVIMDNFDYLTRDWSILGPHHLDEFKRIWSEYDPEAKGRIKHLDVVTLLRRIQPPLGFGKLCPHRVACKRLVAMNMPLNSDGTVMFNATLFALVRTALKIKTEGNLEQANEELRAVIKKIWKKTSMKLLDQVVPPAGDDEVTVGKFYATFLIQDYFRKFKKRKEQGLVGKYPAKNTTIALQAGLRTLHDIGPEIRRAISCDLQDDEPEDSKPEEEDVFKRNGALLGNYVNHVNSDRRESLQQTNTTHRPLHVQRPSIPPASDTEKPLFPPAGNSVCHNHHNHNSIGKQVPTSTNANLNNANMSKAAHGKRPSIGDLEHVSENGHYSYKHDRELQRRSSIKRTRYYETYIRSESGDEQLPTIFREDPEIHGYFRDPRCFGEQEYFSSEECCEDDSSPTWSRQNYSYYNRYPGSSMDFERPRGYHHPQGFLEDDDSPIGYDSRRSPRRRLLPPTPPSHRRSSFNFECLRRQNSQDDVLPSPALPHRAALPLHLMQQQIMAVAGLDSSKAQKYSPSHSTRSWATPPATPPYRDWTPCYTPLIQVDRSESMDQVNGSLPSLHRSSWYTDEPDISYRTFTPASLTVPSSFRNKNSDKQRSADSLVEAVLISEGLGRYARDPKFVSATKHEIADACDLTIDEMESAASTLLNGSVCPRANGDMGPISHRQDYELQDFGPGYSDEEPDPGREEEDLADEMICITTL
Sequence (P54284 whole entry partner): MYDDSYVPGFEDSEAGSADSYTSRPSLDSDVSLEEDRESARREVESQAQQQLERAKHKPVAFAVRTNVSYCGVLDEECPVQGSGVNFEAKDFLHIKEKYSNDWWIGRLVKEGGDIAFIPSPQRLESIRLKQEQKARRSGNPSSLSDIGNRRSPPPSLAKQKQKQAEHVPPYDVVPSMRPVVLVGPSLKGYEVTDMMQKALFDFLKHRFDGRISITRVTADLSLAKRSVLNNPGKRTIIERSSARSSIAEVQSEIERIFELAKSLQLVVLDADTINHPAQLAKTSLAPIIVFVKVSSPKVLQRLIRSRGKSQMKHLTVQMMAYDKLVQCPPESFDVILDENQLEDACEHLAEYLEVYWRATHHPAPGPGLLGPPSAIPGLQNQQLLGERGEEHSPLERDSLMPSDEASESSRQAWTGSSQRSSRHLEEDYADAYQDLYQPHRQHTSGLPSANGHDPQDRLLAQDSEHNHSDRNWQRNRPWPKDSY
Sequence (P54289 25-956 partner limits assumed): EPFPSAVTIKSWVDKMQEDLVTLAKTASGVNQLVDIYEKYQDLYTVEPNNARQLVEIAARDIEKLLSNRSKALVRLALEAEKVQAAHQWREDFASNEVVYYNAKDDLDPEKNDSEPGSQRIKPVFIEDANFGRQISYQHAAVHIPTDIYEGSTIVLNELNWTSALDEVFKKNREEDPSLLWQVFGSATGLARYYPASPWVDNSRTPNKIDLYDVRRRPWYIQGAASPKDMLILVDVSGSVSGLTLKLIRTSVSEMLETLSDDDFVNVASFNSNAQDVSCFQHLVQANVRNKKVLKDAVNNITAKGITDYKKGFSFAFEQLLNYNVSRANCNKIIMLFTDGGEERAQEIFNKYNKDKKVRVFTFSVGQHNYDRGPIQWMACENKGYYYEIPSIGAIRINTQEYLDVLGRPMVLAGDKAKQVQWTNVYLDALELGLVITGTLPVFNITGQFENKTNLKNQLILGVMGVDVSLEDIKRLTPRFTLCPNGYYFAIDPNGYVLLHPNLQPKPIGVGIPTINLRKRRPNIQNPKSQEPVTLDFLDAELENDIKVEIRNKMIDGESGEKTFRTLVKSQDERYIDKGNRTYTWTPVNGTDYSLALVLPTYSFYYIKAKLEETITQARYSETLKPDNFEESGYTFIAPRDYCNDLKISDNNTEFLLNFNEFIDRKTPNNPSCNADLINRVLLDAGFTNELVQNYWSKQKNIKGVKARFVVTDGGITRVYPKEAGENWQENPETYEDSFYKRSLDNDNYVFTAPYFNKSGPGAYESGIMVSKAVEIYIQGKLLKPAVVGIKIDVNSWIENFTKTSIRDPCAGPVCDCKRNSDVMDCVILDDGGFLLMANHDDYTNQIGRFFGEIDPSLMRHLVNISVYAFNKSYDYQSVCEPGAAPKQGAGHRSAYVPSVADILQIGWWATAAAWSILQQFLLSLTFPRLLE
Sequence (P54289 957-1103 partner limits assumed): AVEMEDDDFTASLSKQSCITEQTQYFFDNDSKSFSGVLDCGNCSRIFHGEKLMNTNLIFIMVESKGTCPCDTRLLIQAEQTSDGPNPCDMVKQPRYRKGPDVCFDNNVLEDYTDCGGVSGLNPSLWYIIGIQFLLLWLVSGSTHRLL
PROTOCOL DESCRIPTION: FLIPR Fluo-8 calcium assay, Cav1.3 channel inhibition in HEK293 cells
Type: cell-based
MEASUREMENT SETUP: third library; ratio of IC50 Cav1.2 to Cav1.3
QUANTITY KIND: Selectivity

In: Can you share its Selectivity? I mean this compound: O=C1CC(=O)N(C2C3CC4CC(C3)CC2C4)C(=O)N1CCc1ccc(Cl)cc1 (stereo not drawn) [Compound 116]
Out: 18.3

In: Param item = O=C1CC(=O)N(C2C3CC4CC(C3)CC2C4)C(=O)N1CCc1cccc(Cl)c1 (stereo not drawn) [Compound 117] ; retrieve measured Selectivity.
Out: 2.0

In: Which Selectivity reading was recorded for the compound O=C1CC(=O)N(C2CCCCCC2)C(=O)N1CCc1ccc(Cl)cc1 [Compound 92] ?
Out: 15.0

In: Look up Selectivity: O=C1CC(=O)N(CC2CCCCC2)C(=O)N1CCc1cccc(Cl)c1 [Compound 109]
Out: 30.5

In: Quick one: Selectivity of O=C1CC(=O)N(C2CCC2)C(=O)N1CCc1ccc(Cl)cc1 [Compound 100] ?
Out: 2.8

In: Consider the compound shown here: CCC(C)N1C(=O)CC(=O)N(CCc2cccc(C(F)(F)F)c2)C1=O (stereo not drawn) [Compound 108] What is its recorded Selectivity?
Out: 10.5

In: Recorded Selectivity of O=C1CC(=O)N(C2CC2)C(=O)N1CCc1cccc(Cl)c1 [Compound 101] , please.
Out: 0.2

In: Give the measured Selectivity of O=C1CC(=O)N(C2CCC2)C(=O)N1CCc1cccc(Cl)c1 [Compound 99] .
Out: 5.4

In: Entry under review: O=C1CC(=O)N(c2cccc(F)c2)C(=O)N1CCc1cccc(Cl)c1 [Compound 103] . Reported Selectivity?
Out: 0.5

In: I have this compound here, Cc1ccc(CCN2C(=O)CC(=O)N(C3CCCC3)C2=O)cc1 [Compound 98] , and I need its recorded Selectivity.
Out: 20.7

In: Item under review: O=C1CC(=O)N(C2CCCCCC2)C(=O)N1CCc1cccc(C(F)(F)F)c1 [Compound 90] . Reported Selectivity?
Out: 3.4

In: Form field: reported Selectivity of Cc1cccc(CCN2C(=O)CC(=O)N(C3CCCC3)C2=O)c1 [Compound 97]
Out: 49.1

In: Look up Selectivity for this compound: O=C1CC(=O)N(CC2CCCCC2)C(=O)N1CCc1ccc(Cl)cc1 [Compound 110]
Out: 27.3

In: Entry CC(CN1C(=O)CC(=O)N(C2CCCC2)C1=O)c1ccccc1 (racemic) [Compound 96] has what Selectivity?
Out: 17.6

In: What value of Selectivity has been reported for the following compound? O=C1CC(=O)N(C23CC4CC(CC(C4)C2)C3)C(=O)N1CCc1cccc(Cl)c1 [Compound 115]
Out: 0.7

In: Which Selectivity is reported for this compound? O=C1CC(=O)N(C2CCCC2)C(=O)N1CCc1cccc(Cl)c1 [Compound 8]
Out: 1008.2

In: What does the data say about its Selectivity? Entry: CC(C)(C)N1C(=O)CC(=O)N(CCc2cccc(C(F)(F)F)c2)C1=O [Compound 106]
Out: 5.7

In: Param item = CC(C)(C)N1C(=O)CC(=O)N(CCc2cccc(Cl)c2)C1=O [Compound 105] ; retrieve measured Selectivity.
Out: 0.7
